The measured values listed here are drawn from paper PMC4378865.

# ASSAY_TARGET: T. brucei MetRS (Trypanosoma brucei brucei, UniProt Q38C91)
# Sequence (Q38C91 1-773): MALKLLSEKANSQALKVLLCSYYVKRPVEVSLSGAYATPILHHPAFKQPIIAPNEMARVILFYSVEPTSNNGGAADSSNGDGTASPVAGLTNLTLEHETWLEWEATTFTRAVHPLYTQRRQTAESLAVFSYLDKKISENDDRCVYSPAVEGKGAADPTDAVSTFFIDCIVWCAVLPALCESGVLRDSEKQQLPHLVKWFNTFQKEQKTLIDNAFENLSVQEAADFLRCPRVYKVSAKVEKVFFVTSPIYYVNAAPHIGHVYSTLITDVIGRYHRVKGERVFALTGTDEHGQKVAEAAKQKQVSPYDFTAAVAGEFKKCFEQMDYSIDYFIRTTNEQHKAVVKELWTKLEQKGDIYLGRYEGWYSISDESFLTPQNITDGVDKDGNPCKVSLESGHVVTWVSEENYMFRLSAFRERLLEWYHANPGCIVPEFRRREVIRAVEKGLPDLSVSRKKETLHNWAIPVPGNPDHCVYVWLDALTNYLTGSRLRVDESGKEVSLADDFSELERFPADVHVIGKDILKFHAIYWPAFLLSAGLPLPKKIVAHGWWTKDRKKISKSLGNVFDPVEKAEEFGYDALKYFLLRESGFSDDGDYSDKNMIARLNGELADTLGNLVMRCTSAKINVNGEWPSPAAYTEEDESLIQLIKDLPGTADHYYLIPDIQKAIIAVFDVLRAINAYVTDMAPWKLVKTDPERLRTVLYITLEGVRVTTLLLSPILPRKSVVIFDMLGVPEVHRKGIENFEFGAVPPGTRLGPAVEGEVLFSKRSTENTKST
# ASSAY_NAME: Orthogonal fluorescence polarization AMP production assay
# Format: biochemical
# TEST_PARAMETERS: fluorescence polarization assay
ENDPOINT: IC50 (nM)
Dear colleague, please return just the value in nM, with no unit written.

Request: Return reported IC50; argument: O=C(Cn1cc(C(=O)C(=O)N2CCOCC2)c2ccccc21)Nc1cccc(C(F)(F)F)c1 [CID 2973195]
Result: 292
